TARGET UNDER TEST: hOT7T175 (Homo sapiens, UniProt Q969F8, L364H)
Construct: expressed in transfected cells
Sequence (Q969F8 whole entry L364H): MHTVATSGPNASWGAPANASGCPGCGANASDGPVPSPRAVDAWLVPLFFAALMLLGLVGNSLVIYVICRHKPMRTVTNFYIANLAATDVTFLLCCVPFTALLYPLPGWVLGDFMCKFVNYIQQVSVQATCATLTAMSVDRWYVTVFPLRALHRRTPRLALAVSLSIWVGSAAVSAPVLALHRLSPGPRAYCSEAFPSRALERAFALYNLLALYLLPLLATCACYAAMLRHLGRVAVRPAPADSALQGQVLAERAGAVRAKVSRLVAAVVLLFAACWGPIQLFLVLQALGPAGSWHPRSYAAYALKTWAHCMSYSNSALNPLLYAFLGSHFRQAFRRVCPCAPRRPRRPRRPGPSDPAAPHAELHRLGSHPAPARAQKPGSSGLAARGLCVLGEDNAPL
Type: cell-based
CONDITION PARAMETERS: hOT7T175/CHO, FLIPR, evaluation for 40 seconds after initiation of the reaction
Starred links: 1 amine or outer side, 2 acyl side, 3 side chain; linkers in the order of their positions; H or OH if unused. Non-standard residues stand in square brackets, D forms with d. Residues, ends and D or L forms follow the SMILES beside them. *: point of attachment. X3 = O=C(CNC(=S)[C@H](Cc1ccccc1)N[*:1])[*:2]; Arg(Me) = CNC(=N)NCCC[C@H](N)C(=O)O; X2 = O=C(Cc1c[nH]c2ccccc12)*; azaGly = NNC(=O)O
For each entry below, report its Specific Act. (EC50/MS10 EC50) value.

Ask: Specific Act. (EC50/MS10 EC50) for CNC(=N)NCCC[C@H](NC(=O)[C@H](CC(C)C)NC(=O)NNC(=O)[C@H](Cc1ccccc1)NC(=O)[C@H](CO)NC(=O)[C@H](CC(N)=O)NC(=O)[C@H](Cc1c[nH]c2ccccc12)NC(=O)[C@H](CC(N)=O)NC(=O)[C@H](N)Cc1ccc(O)cc1)C(=O)N[C@@H](Cc1ccc(F)cc1)C(N)=O ?
Result: 2.9

Ask: Quick one: Specific Act. (EC50/MS10 EC50) of CNC(=N)NCCC[C@H](NC(=O)[C@H](CC(C)C)NC(=O)CNC(=O)[C@H](Cc1ccccc1)NC(=O)[C@H](CO)NC(=O)[C@H](CC(N)=O)NC(=O)[C@H](Cc1c[nH]c2ccccc12)NC(=O)[C@H](CC(N)=O)NC(=O)[C@H](N)Cc1ccc(O)cc1)C(=O)N[C@@H](Cc1c[nH]c2ccccc12)C(N)=O [Compound No. 174] (H-[dY]NWNSFGL[Arg(Me)]W-NH2) ?
Result: 2.3

Ask: // lookup Specific Act. (EC50/MS10 EC50) for CNC(=N)NCCC[C@H](NC(=O)[C@H](CC(C)C)NC(=O)CNC(=O)[C@H](Cc1ccccc1)NC(=O)[C@@H](NC(=O)[C@H](CC(N)=O)NC(=O)[C@H](Cc1c[nH]c2ccccc12)NC(=O)[C@H](CC(N)=O)NC(=O)[C@H](N)Cc1ccc(O)cc1)[C@@H](C)O)C(=O)N[C@@H](Cc1ccccc1)C(N)=O [Compound No. 211] (H-[dY]NWNTFGL[Arg(Me)]F-NH2)
Result: 1.3

Ask: Reported Specific Act. (EC50/MS10 EC50), compound CNC(=N)NCCC[C@H](NC(=O)[C@H](CC(C)C)NC(=O)CNC(=O)[C@H](Cc1ccccc1)NC(=O)[C@H](CO)NC(=O)[C@H](CC(N)=O)NC(=O)[C@H](Cc1c[nH]c2ccccc12)NC(=O)[C@H](CC(N)=O)NC(=O)[C@H](N)Cc1ccc(O)cc1)C(=O)N[C@@H](Cc1ccccc1)C(N)=O : ____
Result: 1.6

Ask: Please report the recorded Specific Act. (EC50/MS10 EC50) for CNC(=N)NCCC[C@H](NC(=O)[C@H](CC(C)C)NC(=O)CNC(=S)[C@H](Cc1ccccc1)NC(=O)[C@H](CO)NC(=O)[C@H](CC(N)=O)NC(=O)[C@H](Cc1c[nH]c2ccccc12)NC(=O)[C@H](CC(N)=O)NC(=O)[C@H](N)Cc1ccc(O)cc1)C(=O)N[C@@H](Cc1ccccc1)C(N)=O [Compound No. 296] (H-[dY]NWNS[X3]L[Arg(Me)]F-NH2) .
Result: 5.2

Ask: Quick one: Specific Act. (EC50/MS10 EC50) for CNC(=N)NCCC[C@H](NC(=O)[C@H](CC(C)C)NC(=O)NNC(=O)[C@H](Cc1ccccc1)NC(=O)[C@H](CO)NC(=O)[C@H](CC(N)=O)NC(=O)Cc1c[nH]c2ccccc12)C(=O)N[C@@H](Cc1ccccc1)C(N)=O [Compound No. 266] (X2-NSF[azaGly]L[Arg(Me)]F-NH2) ?
Result: 5.4
